test: NCI Yeast Anticancer Drug Screen. Data for the rad50 strain (AID 155);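 note: 0% = growth of vehicle-only cultures of the same strain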; conditions: S. cerevisiae rad50 strain growth inhibition; at 50.0 µM; hits give high values
Compounds without any hit were thinned out: in the full panel of roughly 79,000, 15% have a hit.
TEST READOUT: growth inhibition (%)
Your answer should be a plain number; it is taken to be in %.

Sample answers from the record:
>  <COMPOUND>
[CH3][Ge]([Cl])([c]1ccccc1)[c]1cccc2ccccc12 (centres undefined)

>  <ENDPOINT UNIT>
%

>  <growth inhibition>
25.2

$$$$
>  <COMPOUND>
O=C(N/N=C/c1cc(Br)cc(Br)c1O)c1ccccc1

>  <ENDPOINT UNIT>
%

>  <growth inhibition>
3.85

$$$$
>  <COMPOUND>
COc1ccc2c(c1)nc1n2C(N)=Nc2ccccc2S1

>  <ENDPOINT UNIT>
%

>  <growth inhibition>
44.5

$$$$
>  <COMPOUND>
CCN(CC)Cc1ncccc1O

>  <ENDPOINT UNIT>
%

>  <growth inhibition>
8.5

$$$$
>  <COMPOUND>
COc1ccccc1Nc1nc(N)nc(N)c1N

>  <ENDPOINT UNIT>
%

>  <growth inhibition>
0.85

$$$$

Could you tell me which growth inhibition is on file for CCCCC(=O)C(CC)(c1ccccc1)N(C)C (centres undefined) ?
-11.7

# growth inhibition lookup, item O=C1c2ccccc2N2OC3(N4CCOCC4)CCCC3C12c1ccccc1 (centres undefined)
57.5

Field request: growth inhibition | item: O=c1[nH]c(C(F)(F)F)c(CCc2ccccc2)c(=O)[nH]1
3.5

So what does the record say about growth inhibition for Cc1ccccc1NC(=O)Nc1ccccc1C ?
-3.8

Find the recorded growth inhibition belonging to O/N=C(/Cc1ccccc1)c1ccccc1 and report it.
26.6

Fill in: growth inhibition of Cc1c(C(=O)CC(=O)C(=O)Nc2c(C(C)C)cccc2C(C)C)[n+](=O)c2ccccc2n1[O-] is ___
35.6

Entry CCOC(=O)NC(=O)c1cn(CC(=O)NCC(=O)NCC(=O)NCCCN2CCN(CCCNC(=O)CNC(=O)CNC(=O)Cn3cc(C(=O)NC(=O)OCC)c(=O)[nH]c3=O)CC2)c(=O)[nH]c1=O has what growth inhibition?
-5

Which growth inhibition reading was recorded for the compound CC(C)CCCC(C)C1CCC2C3CC=C4CC(OC(=O)C(Cl)(Cl)Cl)CCC4(C)C3CCC12C (centres undefined) ?
-7.65

What does the data say about its growth inhibition? Entry: Fc1c(F)c(F)c(SN=S=Nc2ccccc2)c(F)c1F
13.4

Find the recorded growth inhibition belonging to O=C(Nc1ccc(Cl)cc1)c1cccnc1 and report it.
10.1

If you can, please state the reported growth inhibition value of NC(=O)C1CC2CC(Cl)C1C2 (centres undefined) .
-0.5

Suppose we examine the compound O=CCS ; what growth inhibition value has been reported?
-0.2

Fill blank: measured growth inhibition of the compound Cc1ccc(C(=O)/C=C/c2ccc3c(c2)OCO3)c(C)c1 is ____.
39.9

growth inhibition for N/C(=N\OC(=O)Nc1ccc(CSc2ccc(Cl)cc2)o1)c1ccccn1 ?
2.9

For the compound shown here, CC(=N\N)/C(C)=N/N=C(C)/C(C)=N/N=C(C)/C(C)=N/N=C(C)/C(C)=N/N , give the reported growth inhibition.
11.7

Entry CCc1nn2c(=O)nc(Oc3ccccc3)nc2s1 has what growth inhibition?
-5.55

Endpoint output: growth inhibition of Nc1nc(N)c(CCCCc2ccc([N+](=O)[O-])cc2)c(N)n1 . Value?
-1.05

Query: growth inhibition; subject: Cc1cccc2c3c(ccc12)C(=O)OC3=O
-0.3
